B1: SPACA3 (parent)
chain: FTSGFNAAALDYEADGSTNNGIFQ

- Variants of: B1
- PROTOCOL SUMMARY: protein stability index of a GFP-peptide fusion (GPS, HEK-293T) (PSI 1-6); higher = more stable;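 also: lentivirally expressed fusions sorted by FACS into six bins by GFP to DsRed ratio, PSI derived from sequencing read proportions per bin multiplied by bin number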
- MEASUREMENT PARAMETERS: c terminus: a fixed tail appended
Decide by protein stability index: equal to or exceeding 2 means yes (1), less means no (0).

Task: hey, is protein stability index for this one >= 2? A14N
Result: no (0)

Task: For this variant, is measured protein stability index 2 or higher? A9I
Result: yes (1)

Task: Quick check, protein stability index >= 2? A8R
Result: yes (1)

Task: In plain terms: is recorded protein stability index at least 2 for T2N ?
Result: yes (1)

Task: Hi team, for S3V , is the recorded protein stability index at or above 2?
Result: yes (1)

Task: Quick check: does S17A have protein stability index greater than or equal to 2?
Result: yes (1)

Task: Does I22F have a reported protein stability index of at least 2?
Result: no (0)

Task: Answer whether protein stability index of Y12E is greater than or equal to 2.
Result: yes (1)

Task: Dear colleague, could you confirm whether Q24A has protein stability index at or above 2?
Result: no (0)

Task: Form field: protein stability index at least 2? Entry: L10A
Result: no (0)

Task: Textbook exercise: given the entry E13N , state whether its protein stability index is greater than or equal to 2.
Result: yes (1)

Task: Could you please find out whether A14R has protein stability index that meets 2 or exceeds it?
Result: yes (1)

Task: Tell me whether protein stability index is at least 2 here: G4E
Result: yes (1)

Task: Item A8F with protein stability index of 2 or above?
Result: yes (1)

Task: Check this variant for protein stability index at or above 2: A7M
Result: yes (1)

Task: I'd appreciate it if you could say whether S3K has protein stability index at least equal to 2.
Result: yes (1)

Task: protein stability index >= 2 for F23R ?
Result: yes (1)

Task: State whether the measured protein stability index reaches 2, counting equality as reaching it, for L10R
Result: no (0)

Task: Please indicate if the recorded protein stability index for S17C meets or exceeds 2.
Result: no (0)

Task: Hi team, for A7K , is the recorded protein stability index at or above 2?
Result: no (0)
